Cited source for all entries: the RNAGym collection of RNA variant scans (doi:10.7554/elife.90254)

B1: LINE1-full (parent)
chain: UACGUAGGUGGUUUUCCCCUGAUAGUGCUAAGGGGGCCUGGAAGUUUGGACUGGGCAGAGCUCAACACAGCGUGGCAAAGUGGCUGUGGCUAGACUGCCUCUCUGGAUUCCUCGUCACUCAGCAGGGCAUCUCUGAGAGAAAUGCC

# Variants of: B1
# protocolText: self-cleavage, relative activity (ratio to wild type); higher = more cleavage; in vitro, sequencing; the parent is a self-cleaving ribozyme
Tag: criterion met if measured self-cleavage is not below 1, criterion not met if it is.

Field: example entries. Status: answers known.
| variantLabel | classLabel |
| --- | --- |
| A30G A142G | criterion met |
| A67G U143A | criterion not met |

Enquiry: Is the recorded value of self-cleavage equal to or greater than 1 for this variant? U26C U100C
Return: criterion met

Enquiry: Is the recorded value of self-cleavage equal to or greater than 1 for this variant? A24G A57C
Return: criterion not met

Enquiry: Is the recorded value of self-cleavage equal to or greater than 1 for this variant? U39G A67G
Return: criterion met
